Parameter: IC50. Scope: all listed entries.
Test Target: USP1/UAF1 enzyme (Homo sapiens)
Sequence (O94782 whole entry): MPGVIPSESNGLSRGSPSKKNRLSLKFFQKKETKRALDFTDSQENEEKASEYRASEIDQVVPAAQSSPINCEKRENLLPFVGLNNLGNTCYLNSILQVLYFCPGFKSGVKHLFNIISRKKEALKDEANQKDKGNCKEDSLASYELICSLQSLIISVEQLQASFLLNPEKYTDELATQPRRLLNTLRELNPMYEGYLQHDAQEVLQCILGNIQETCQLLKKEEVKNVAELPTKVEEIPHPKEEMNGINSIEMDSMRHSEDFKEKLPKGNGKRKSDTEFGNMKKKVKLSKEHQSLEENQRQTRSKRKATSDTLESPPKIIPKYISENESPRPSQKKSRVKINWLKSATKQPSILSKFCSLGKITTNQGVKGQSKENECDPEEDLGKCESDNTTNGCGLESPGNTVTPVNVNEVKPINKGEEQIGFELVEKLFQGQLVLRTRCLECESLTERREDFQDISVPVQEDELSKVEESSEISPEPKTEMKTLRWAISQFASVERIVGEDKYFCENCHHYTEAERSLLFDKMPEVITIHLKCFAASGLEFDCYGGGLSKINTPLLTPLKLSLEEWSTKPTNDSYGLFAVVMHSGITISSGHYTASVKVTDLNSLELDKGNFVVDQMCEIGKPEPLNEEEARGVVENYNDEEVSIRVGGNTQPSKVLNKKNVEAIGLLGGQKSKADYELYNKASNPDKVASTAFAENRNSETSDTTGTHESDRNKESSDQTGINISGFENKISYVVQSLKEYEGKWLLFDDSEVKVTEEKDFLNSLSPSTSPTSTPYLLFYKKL
Sequence (Q8TAF3 whole entry partner): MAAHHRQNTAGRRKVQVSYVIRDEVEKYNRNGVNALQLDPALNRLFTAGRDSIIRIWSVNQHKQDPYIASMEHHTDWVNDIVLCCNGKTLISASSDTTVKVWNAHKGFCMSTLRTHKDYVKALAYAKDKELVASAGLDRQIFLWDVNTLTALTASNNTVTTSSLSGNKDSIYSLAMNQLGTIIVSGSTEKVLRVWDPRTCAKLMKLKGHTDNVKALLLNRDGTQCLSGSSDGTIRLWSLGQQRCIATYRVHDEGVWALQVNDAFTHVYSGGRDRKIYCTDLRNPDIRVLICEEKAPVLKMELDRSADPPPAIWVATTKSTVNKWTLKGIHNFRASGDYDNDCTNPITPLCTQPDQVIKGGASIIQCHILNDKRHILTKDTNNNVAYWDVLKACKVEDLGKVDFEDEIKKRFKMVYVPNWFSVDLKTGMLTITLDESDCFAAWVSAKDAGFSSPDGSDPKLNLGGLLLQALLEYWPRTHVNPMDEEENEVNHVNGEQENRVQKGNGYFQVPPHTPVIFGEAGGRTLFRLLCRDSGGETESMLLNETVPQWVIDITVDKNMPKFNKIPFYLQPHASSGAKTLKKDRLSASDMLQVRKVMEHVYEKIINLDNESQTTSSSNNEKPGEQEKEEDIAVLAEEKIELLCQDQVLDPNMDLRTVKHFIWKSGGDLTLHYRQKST
Assay Procedure: USP1/UAF1 deubiquitination assay (ubiquitin-rhodamine 110 substrate)
Test Parameters: read-out: USP1 IC50 (Ub-Rho)
Quantity: IC50

- Compound: "COc1ncnc(C2CC2)c1-c1cc2n(n1)CCC(=O)N2Cc1ccc(-n2nc(C#N)cc2OC)cc1"
  Test Value: "100 to 500 nM"
- Compound: "CC(C)n1ncc(Cl)c1-c1cc2n(n1)CCC(=O)N2Cc1ccc(-c2ncccc2OC(F)F)c(Cl)c1"
  Test Value: "100 to 500 nM"
- Compound: "Cc1cnn(C(C)C)c1-c1cc2n(n1)CCCN2Cc1ccc(-n2nc(C(F)(F)F)cc2C)cc1"
  Test Value: "< 100 nM"
- Compound: "CCn1cc(C(F)(F)F)nc1-c1ccc([C@H](C)n2c(=O)ccn3nc(-c4c(OC)ncnc4C4CC4)cc23)cc1"
  Test Value: "< 100 nM"
- Compound: "COc1ncnc(C2CC2)c1-c1cc2n(n1)CCC(=O)N2Cc1ccc(-c2nc(C(F)(F)F)cn2C)nc1"
  Test Value: "> 500 nM"
- Compound: "CCn1cc(C(F)(F)F)nc1-c1ccc(CN2C(=O)C(NC)Cn3nc(-c4c(Cl)cnn4C(C)C)cc32)cc1 (stereo not shown)"
  Test Value: "100 to 500 nM"
- Compound: "CC(C)n1cc(C(F)(F)F)nc1-c1ccc([C@@H](C)N2C(=O)CCn3nc(-c4c(Cl)cnn4C(C)C)nc32)cc1"
  Test Value: "< 100 nM"
